- Tested on: SK-OV-3 ovarian
- Assay name: NCI tumour cell line growth inhibition, 48 h
I'd appreciate it if you could supply TGI values for the items below.

# annotated cases, reported TGI shown
O[C@@H]1CCCCN1Cc1cc2cc3c(cc2c2cc(OCc4ccccc4)ccc12)OCO3: 3.39 µM
COc1ccccc1Nc1nc(N)nc(N)c1N: > 100 µM
N#CC1(C2CC(=O)N(c3ccccc3)C2=O)CCCCC1=O (stereo not drawn): > 100 µM

Give one value of TGI per listed molecule.
1. CC(C)OC(=O)OCOP(=O)(OCOC(=O)OC(C)C)C1CCCN(O)C1=O (stereo not drawn)
2. Cc1cc2c(=O)cc(-c3ccncc3)oc2c(C(N)=O)c1C
3. C/C(=N\NC(N)=O)C(CN1CCOCC1)C(c1ccccc1)c1c(O)c2ccccc2oc1=O (stereo not drawn)
4. CCOP(=O)(OCC)/C(F)=C/c1ccc(F)cc1
5. CCOc1ccc(-c2nc3ccc(-c4nc5ccc(N6CCN(C)CC6)cc5[nH]4)cc3[nH]2)cc1OCC
6. COc1cnc2c(c1)C(=O)c1c-2n(CCCN2CCNCC2)c(=O)c2cc(F)ccc12
7. CN(C)c1ccc(-c2cc(-c3cccc(NS(C)(=O)=O)c3)nc(N)c2C#N)cc1
8. CC12CCC(C(=Nc3ccc([N+](=O)[O-])cc3)C1=O)C2(C)C (stereo not drawn)

> 100 µM
> 100 µM
> 100 µM
> 100 µM
9.41 µM
0.916 µM
1.74 µM
> 100 µM

Batch: TGI for all items listed.
1. O=c1[nH]c2c(ccc3cnccc32)c2c1CCC2
2. CC(C)c1cc(C(C)C)c(S(=O)(=O)N/N=C2\CC3CCC2(C)C3(C)C)c(C(C)C)c1 (stereo not drawn)
3. CCN(CC)c1ccc(C=C2C(=O)NC(=S)NC2=O)cc1
4. CCCCCCCCCCCCOC(=N)N1CCOCC1

> 100 µM
> 100 µM
28 µM
34.1 µM

Provide each entry's TGI from the list below.
1. O=C1C(CN2CCCC2)CCC1CN1CCCC1 (stereo not drawn)
2. O=C(c1ccccc1)N1CCc2c([nH]c3ccccc23)C1

1: > 100 µM; 2: > 100 µM

Consider the following items and state reported TGI for each.
1. CSC(SC)=C1Sc2cccc(Cl)c2S1
2. C/C(=C\COP(=O)(O)CP(=O)(O)O)CC/C=C(\C)CNc1ccccc1
3. CCOC(=O)c1sc(N)nc1N1CCCC1
4. N#CSc1c[nH]c2cccc(/C=C/C(=O)/C=C(O)/C=C/c3cccc4[nH]cc(SC#N)c34)c12

1. > 100 µM
2. > 100 µM
3. > 100 µM
4. 5.23 µM

// each molecule listed below needs its TGI
1. CCn1nc(C#Cc2c(C)ccc3c(Nc4ccc(Cl)cc4)nccc23)c2c(N)ncnc21
2. CC(C)=CCN1c2ccccc2[C@@]2(CC=C(C)C)CCN(C)[C@@H]12
3. CCCCCCCC(=O)N1C2CC3CCC2(CS1(=O)=O)C3(C)C (stereo not drawn)
4. O=C(O)c1ccc2nc(-c3ccccn3)c(-c3ccccn3)nc2c1
5. COC(=O)[C@@H](N1C(=O)c2ccccc2C1=O)C1(C)CC(Cl)=NO1 (stereo partly drawn)

1: > 100 µM; 2: 77.1 µM; 3: > 100 µM; 4: > 100 µM; 5: > 100 µM

Could you report TGI for every entry in the following list?
1. CCN(CC)CCCC(C)Nc1ccnc2cc(OC)ccc12 (stereo not drawn)
2. O=C(CNC(=O)c1cccc2ccccc12)Nc1ccccc1Oc1ccc(O)cc1
3. C[N+](C)(C)CC(=O)N/N=C\c1c(O)ccc2ccccc12
4. CC(=O)OCC1OC(Sc2nc(-c3ccccc3)c(C#N)c(=O)n2C2OC(COC(C)=O)C(OC(C)=O)C(OC(C)=O)C2OC(C)=O)C(OC(C)=O)C(OC(C)=O)C1OC(C)=O (stereo not drawn)

["52.3 µM", "> 25 µM", "> 100 µM", "> 100 µM"]

Hi, could you look up TGI for each item in my list?
1. CCOc1ccc(/C=C/C(=O)c2sc(NNC(C)=O)nc2C)cc1
2. COc1ccc2c(c1)SC1=Nc3sc4cc(OC)ccc4[n+]3CN12
3. CC(C)CCNC(=O)c1ccc(CNC(=O)/C=C/c2ccc3c(c2)-c2ccccc2C3)cc1
4. NS(=O)(=O)c1ccc(NNc2c3ccccc3nc3c(C(=O)Nc4ccc(S(N)(=O)=O)cc4)cccc23)cc1
5. N#Cc1cccc(C2SCc3nc4ccccc4n32)c1 (stereo not drawn)
6. O=[N+]([O-])C1=Cc2c(O)ccc(O)c2C2c3ccccc3NC12 (stereo not drawn)
7. Cc1c(CNc2ccc(Cl)c(Cl)c2Cl)cnc2nc(N)nc(N)c12

> 100 µM
> 100 µM
> 100 µM
> 100 µM
> 100 µM
> 100 µM
> 52.4 µM

The following molecules each have a reported value; give each one's TGI.
1. CC(=O)OCC1OC(NC(=S)Nn2c(-c3ccccc3)nc3ccccc3c2=O)C(OC(C)=O)C(OC(C)=O)C1OC(C)=O (stereo not drawn)
2. CC(C)C1CC(CO)(CNc2nc(N)nc(Cl)c2C=O)C1 (stereo not drawn)
3. Nc1ncnc2c1ncn2C1SC(CO)C(O)C1O (stereo not drawn)

1: > 100 µM; 2: 61.7 µM; 3: 59.6 µM

====

Please go through the items and note down their TGI.
- System: BT-549 breast
- Assay name: NCI tumour cell line growth inhibition, 48 h
Numbers only, in µM.

COc1ccc(-c2cc(-c3ccc(Cl)cc3)c(C#N)c(=O)n2CCCCCC(=O)Nc2ccccc2N)cc1: 43.7

Dear reader, for each entry below, please note its TGI.
1. COC1=C(OC)C(=O)c2cc(C)c(=O)c(C)cc2C1=O
2. CC1(C)CCC(c2ccc(Cl)cc2)=C(CN2CCN(c3ccc(C(=O)NS(=O)(=O)c4ccc(N[C@H](CCN5CCOCC5)CSc5ccccc5)c(S(=O)(=O)C(F)(F)F)c4)cc3)CC2)C1
3. CCN(CC)c1ccc(C=C2C(=O)NC(=S)NC2=O)cc1
4. COc1cccc(-c2cc(-c3ccc(Nc4nc(Nc5ccc(Cl)cc5)nc(Nc5ccc(Cl)cc5)n4)cc3)nc(N)c2C#N)c1
5. COc1cc(CCNC2=CC(=O)c3ncccc3C2=O)ccc1O

1. 28.5
2. 3.6
3. 4.74
4. 10.9
5. 2.99

====

- System: OVCAR-5 ovarian
- Assay name: NCI tumour cell line growth inhibition, 48 h
Exercise: state measured TGI for each of the compounds provided.

# example entries with known answers
COc1nc2c(c(=O)[nH]1)N=C(c1ccc([N+](=O)[O-])cc1)CC(c1ccccc1)N2 (configuration not stated): > 100 µM
NC(C(=O)O)C(O)c1cnc[nH]1 (configuration not stated): > 100 µM
O=C(c1ccccc1)N1N=C(C(F)(F)F)CC1(O)C(F)(F)F (configuration not stated): > 100 µM
CCCCCCCC(=O)N1C2CC3CCC2(CS1(=O)=O)C3(C)C (configuration not stated): > 100 µM
COC(=O)c1c(C(=O)OC)c2ccccn2c1-c1cc(C)cc2c1C(=O)C=CC2=O: 16.9 µM

Please state, for each entry, its recorded TGI.
1. CNC(=S)N/N=C/CSC/C=N/NC(=S)NC
2. COc1ccc(C2OC2C(=O)C23CC4CC(CC(C4)C2)C3)cc1 (configuration not stated)
3. COc1ccc(CC(COS(=O)(=O)c2ccc(C)cc2)NS(=O)(=O)c2ccc(C)cc2)cc1 (configuration not stated)
4. C/C(=C\COP(=O)(O)CP(=O)(O)O)CC/C=C(\C)CNc1ccccc1
5. COc1cc(/C=C2\C(=O)Nc3ccc(O)cc32)cc(OC)c1OC
6. O=c1oc2cc(O)ccc2c(O)c1C(c1ccc(/C=C/c2ccccc2)cc1)c1c(O)c2ccc(O)cc2oc1=O

1. > 100 µM
2. > 100 µM
3. 39.9 µM
4. > 100 µM
5. 33.5 µM
6. > 100 µM

Returns the measured TGI for the input compound. Input: Nc1ncnc2c1ncn2C1SC(CO)C(O)C1O (configuration not stated)
> 100 µM

====

Task for the reader: assign each of the following compounds its reported TGI.
- System: MDA-MB-435
- Assay name: NCI tumour cell line growth inhibition, 48 h
One number for each entry, in µM.

Below, 3 compounds whose answers are already recorded.
CN(C)CCCCN1c2ccccc2Sc2ccc(N=[N+]=[N-])cc21: 4.36
O[C@@H]1CCCCN1Cc1cc2cc3c(cc2c2cc(OCc4ccccc4)ccc12)OCO3: 3.06
COc1cccc(-c2cc(-c3ccc(Nc4nc(Nc5ccc(Cl)cc5)nc(Nc5ccc(Cl)cc5)n4)cc3)nc(N)c2C#N)c1: 4.24

Batch lookup, TGI per entry.
1. CS(=O)c1cc(=O)c2ccccc2s1 (stereo not given)
2. Cc1n[nH]c(C)c1-c1c(C)n[nH]c1C
3. CN1CC[C@H](N(C)C(=O)N2CC(c3cc(F)ccc3F)=C[C@@]2(CO)c2ccccc2)[C@H](F)C1

1: 19; 2: 4.82; 3: 0.00772
